- Test system: MDA-MB-435
- Method Summary: NCI tumour cell line growth inhibition, 48 h
Active and inactive are the calls of the source. Cut-off read from the data, not from the text of the source: active = GI50 up to about 1.1 µM and inactive = higher. Residues, ends and D or L forms follow the SMILES beside them. *: point of attachment. X38 = O=C(c1ccc(-c2ccc(Cl)cc2Cl)o1)*
Readout Label: GI50

Known GI50 results, listed for orientation:
{"columns": ["Compound", "Experimental Value"],
 "data": [
  ["Fc1ccc(N2C(=S)SC(=N\\c3ccccc3)/C2=N/c2ccccc2)cc1", "> 100 µM (inactive)"],
  ["COC(=O)C(CC(C)C)NC(=O)C(Cc1ccccc1)NC(=O)C1CCCN1C(=O)C(CO)NC(=O)c1ccc(-c2ccc(Cl)cc2Cl)o1 (stereo not drawn) (X38-SPFL-OMe; configuration not given here)", "28.3 µM (inactive)"],
  ["CO[C@H]1[C@H](O)[C@H](O[C@H]2CC[C@@]3(C)[C@H](CC[C@@H]4[C@@H]3CC[C@]3(C)[C@@H](C5=CC(=O)OC5)CC[C@]43O)C2)O[C@@H](C)[C@@H]1O [NERIIFOLIN]", "< 0.0001 µM (active)"],
  ["C=C1CC(Cn2cc(Br)c(=O)[nH]c2=O)(c2ccc(-c3ccccc3)cc2)OC1=O (stereo not drawn)", "1.35 µM (inactive)"],
  ["COC(=O)c1cc(C)ccc1C1CN=NC12Cc1cccc(C)c1C2=O (stereo not drawn)", "26.3 µM (inactive)"],
  ["CC(=O)CSCc1ccccn1", "33.4 µM (inactive)"],
  ["CN1C(=O)N(C)C2(CCN(CCCCCCF)CC2)C1=O", "26 µM (inactive)"]
]}

Continue with the compound presented below.
QUERY: Can you look up the measured GI50 of CSc1c(CC(=O)O)n(Cc2ccccc2)c2ccccc12 for me?
RESULT: > 100 µM (inactive)

* * *

- Test system: Malme-3M
- Method Summary: NCI tumour cell line growth inhibition, 48 h
Active and inactive are the calls of the source. Rule as the data show it: active = GI50 up to about 1.1 µM and inactive = higher. *1 amine or outer side, *2 acyl side, *3 side chain or, on linkers, in order; H or OH if unused. Where a SMILES comes first, the peptide text is derived from it. [ ]: non-standard residue; d: D form. The star is where a group is joined. ξ: configuration not given here. NMeY = CN[C@@H](Cc1ccc(O)cc1)C(=O)O; Ethylenediamine = C(CN[*:2])N[*:1]; ξNMeL = CNC(CC(C)C)C(=O)O; Cbz = O=C(OCc1ccccc1)*; Lac = C[C@H](O)C(=O)O; ξA = CC(N)C(=O)O
Your reply should match one of these outcome classes. label 1 = active, label 0 = inactive

Previously resolved entries follow.
{"columns": ["Compound", "Label"],
 "data": [
  ["CN(C)CCCc1c2ccccc2nc2ccc(Cl)cc12", "label 0"],
  ["COc1c(CC(C)=O)ccc2c1C(=O)c1ccc(C=O)c(OC(C)=O)c1C2=O", "label 0"],
  ["COC(=O)c1ccc(Cl)cc1NC(=O)C1CCCCC1", "label 0"],
  ["COc1ccc(C2=CN3CCC[C@H]3C=C2c2cc(O)c(OC)c(OC)c2)cc1OC", "label 1"],
  ["COc1cc2c(cc1OC)C1Cc3cc(OC)c(OC)cc3C(C2)N1C", "label 0"],
  ["Cc1cccc2oc3c(c(=O)c12)CC(O)C(C)(C)O3 (configuration not stated)", "label 0"]
]}

QUERY: Field: outcome | Entry: O=C(OCCOCCOC(=O)c1c[nH]cc1-c1ccccc1)c1c[nH]cc1-c1ccccc1
RESULT: label 0

QUERY: Field: outcome | Entry: O=C(COc1ccc(OCC(=O)N2C(=O)CS/C2=N\c2ccccc2)cc1)N1C(=O)CS/C1=N\c1ccccc1
RESULT: label 0

QUERY: Field: outcome | Entry: COc1ccc(C[C@@H](C(=O)NCCNC(=O)C(CC(C)C)N(C)C(=O)[C@@H]2CCCN2C(=O)[C@H](C)O)N(C)C(=O)[C@@H]2CCCN2C(=O)[C@H](CC(C)C)NC(=O)C(C)NC(=O)OCc2ccccc2)cc1 (some centres not stated) (Cbz-[ξA]LP[NMeY](Me)-{Ethylenediamine-ξNMeL-Pro-Lac})
RESULT: label 0

QUERY: Field: outcome | Entry: CCN1C(=O)C(=CN)C(=O)N(CC)C1=O
RESULT: label 0

QUERY: Field: outcome | Entry: COc1ccc2c(c1O)-c1c(OC)c(OC)cc3c1[C@H](C2)[N+](C)(C)CC3
RESULT: label 0

QUERY: Field: outcome | Entry: S=C1c2ccc(Cl)cc2-n2cnnc2C2CSCN12 (configuration not stated)
RESULT: label 0

QUERY: Field: outcome | Entry: CC(=O)Nc1ccc(-c2nnc(SCC(=O)Nc3ccc(Cl)cc3)o2)cc1
RESULT: label 0

QUERY: Field: outcome | Entry: COC(=O)c1c(C)cccc1CC1Cc2c(C)cccc2C1=O (configuration not stated)
RESULT: label 0

QUERY: Field: outcome | Entry: Cc1ccc(S(=O)(=O)NC(=O)Nc2nnc(S(N)(=O)=O)s2)cc1
RESULT: label 0

QUERY: Field: outcome | Entry: COC(=O)/C(=N\NC(C)(C)C)C(C(=O)OC)C(=O)C(=O)Nc1cc(Cl)ccc1Cl (configuration not stated)
RESULT: label 0

* * *

- System: IGROV-1
- Method Summary: NCI tumour cell line growth inhibition, 48 h
Calls of active or inactive are those of the source. Cut-off read from the data, not from the text of the source: active = GI50 up to about 1.1 µM and inactive = higher.
Your reply should match one of these outcome classes. active, inactive

{"columns": ["Compound", "Label"],
 "data": [
  ["C(=N\\C12CC3CC(CC(C3)C1)C2)/C1CCCCC1", "inactive"],
  ["Cc1nc2ccc(F)cc2c2c1CCN2c1ccc(Cl)cc1", "inactive"]
]}

QUERY: Field: outcome | Entry: O=C(O)C1=CCCc2ccc3ccccc3c21
RESULT: inactive

QUERY: Field: outcome | Entry: COc1ccc(C[C@@H]2CN(C(=O)c3ccccc3)[C@H](Cc3ccc(O)cc3)CN2C(=O)c2ccccc2)cc1Br
RESULT: inactive

QUERY: Field: outcome | Entry: CC(=O)N1[C@H](C(=O)O)CS[C@H]1c1ccncc1
RESULT: inactive

QUERY: Field: outcome | Entry: CC1=C(N2CC2)C(=O)c2nc3n(c2C1=O)CCC3OC(=O)CCl (stereo not given)
RESULT: active

QUERY: Field: outcome | Entry: CC(C)C(C/C=C1\CC(CO)(COC(=O)C(C)(C)C)OC1=O)C(C)C (stereo not given)
RESULT: inactive

QUERY: Field: outcome | Entry: COC(=O)c1c(C)cccc1/C=C1/Cc2c(C)cccc2C1=O
RESULT: inactive

QUERY: Field: outcome | Entry: Cn1c(Sc2ccc(-c3cccnc3)n2C)ccc1-c1cccnc1
RESULT: inactive

QUERY: Field: outcome | Entry: O=C1CC[C@@]2(O)[C@H]3Cc4ccc(-c5ccccc5)c5c4[C@@]2(CCN3CC2CC2)[C@H]1O5
RESULT: inactive

QUERY: Field: outcome | Entry: C=C(CO)[C@H]1Oc2ccc(C(C)=O)cc2[C@@H]1O
RESULT: inactive

QUERY: Field: outcome | Entry: C[Si](C)(C)OC1CC(=O)OC1n1cc(F)c(=O)[nH]c1=O (stereo not given)
RESULT: inactive

QUERY: Field: outcome | Entry: CC(=O)OC1CCC2(C)C(CCC3C2CCC2(C)C(c4ccc(=O)oc4)C(OC(C)=O)CC32O)C1 (stereo not given)
RESULT: active

* * *

- Tested on: MOLT-4
- Method Summary: NCI tumour cell line growth inhibition, 48 h
Active and inactive are the calls of the source. No stated cut-off is given here; in the data, active = GI50 up to about 1.1 µM and inactive = higher.
Your reply should match one of these outcome classes. TRUE (active), FALSE (inactive)

Previously resolved entries follow.
{"columns": ["Compound", "Label"],
 "data": [
  ["C/C=C1\\CN2CCc3c([nH]c4ccccc34)C2C=C1CCO (stereo not given)", "FALSE"],
  ["CC1=N/C(=C\\c2ccc(C)cc2)C(=O)O1", "FALSE"],
  ["NC(=O)CCC(NC(=O)c1cccc2c(=O)c3ccccc3[nH]c12)C(=O)O (stereo not given)", "FALSE"]
]}

QUERY: Field: outcome | Entry: ClCc1nn(-c2ccccc2)c(CCl)c1CCl
RESULT: FALSE

QUERY: Field: outcome | Entry: Cc1ccc(/N=N/c2c(O)c(C(=O)O)cc3ccccc23)cc1C
RESULT: FALSE

QUERY: Field: outcome | Entry: COc1ccc(OC(=O)CC2Cc3cc(OC)c(OC)c(OC)c3-c3ccc(SC)c(=O)cc32)cc1 (stereo not given)
RESULT: TRUE

QUERY: Field: outcome | Entry: CC(C)=CCC/C(=C/CC/C(=C\CCc1ccoc1)C(=O)O)C(=O)O
RESULT: FALSE

QUERY: Field: outcome | Entry: CCC(CO)Nc1nc(NCc2ccccc2)c2ncn(C(C)C)c2n1 (stereo not drawn) [(RS)-ROSCOVITINE]
RESULT: FALSE

QUERY: Field: outcome | Entry: CC(=O)N1[C@H](C(=O)O)CS[C@H]1c1ccncc1
RESULT: FALSE

QUERY: Field: outcome | Entry: Cc1c(C#N)c(N)n(C2OCC(O)C(O)C2O)c(=S)c1C#N (stereo not given)
RESULT: FALSE

QUERY: Field: outcome | Entry: O=C(NC(=O)c1cn(CCNCCO)c(=O)[nH]c1=O)OCc1ccccc1
RESULT: FALSE
